# Experiment Summary: Ratio of AUC (0 to infinity) in C57BL/6 mouse brain to AUC (0 to infinity) in C57BL/6 mouse plasma at 2.5 mg/kg, iv
# Assay type: ADME, organism-based
# Set-up: dose 2.5 mg/kg, route intravenous
# Condition: read-out: Ratio AUC
Assay Readout: Kp

Example results:
COc1cnc(N(C)c2nc(C)nc3ccccc23)cn1 :: 1.9
COc1ccc(N(C)c2nc(C)nc3ccccc23)cc1 :: 16
CC(=O)Nc1ccc(N(C)c2nc(C)nc3ccccc23)cc1 :: 0.74
COc1ccc(N(C)c2nc(C)nc3ccccc23)cn1 :: 5.8

P: Cc1nc(N(C)c2ccc(N)cc2)c2ccccc2n1
Q: COc1ccc(N(C)c2nc(N(C)C)nc3ccccc23)cc1
Returns: the argument ( P or Q ) having the larger Kp. Kindly give the label for the entry you pick.
Q
